# ASSAY TARGET: T1, c-erbB-2 ECD with a Ser-Gly-His6 C-terminal fusion (UniProt P04626 23-652)
# T1 construct: extracellular domain; expressed from CHO cells, IMAC purified; coupled to a CM5 chip, adsorbed to polystyrene, or biotinylated and captured on avidin; also called c-erbB-2 extracellular domain; biotinylated c-erbB-2 ECD
# METHOD SUMMARY: from SPR (BIAcore) Kd values
The recorded ΔΔGI of each item maps onto one of these classes: lower range: < -0.2 kcal/mol; middle range: ≥ -0.2 kcal/mol and < -0.01 kcal/mol; upper range: ≥ -0.01 kcal/mol

1. C6-B1D3 (scFv) QVQLLQSGAELKKPGESLKISCKGSGYSFTSYWIAWVRQMPGKGLEYMGLIYPGDSDTKYSPSFQGQVTISVDKSVSTAYLQWSSLKPSDSAVYFCARHDVGYCTDRTCAKWPEWLDNWGQGTLVTVSSGGGGSGGGGSGGGGSQSVLTQPPSVSAAPGQKVTISCSGSSSNIGNNYVSWYQQLPGTAPKLLIYGHTNRPAGVPDRFSGSKSGTSASLAISGFRSEDEADYYCASWDYTLSGWVFGGGTKLTVLG    lower range
2. C6-B1D1 (scFv) QVQLLQSGAELKKPGESLKISCKGSGYSFTSYWIAWVRQMPGKGLEYMGLIYPGDSDTKYSPSFQGQVTISVDKSVSTAYLQWSSLKPSDSAVYFCARHDVGYCTDRTCAKWPEWLHVWGQGTLVTVSSGGGGSGGGGSGGGGSQSVLTQPPSVSAAPGQKVTISCSGSSSNIGNNYVSWYQQLPGTAPKLLIYGHTNRPAGVPDRFSGSKSGTSASLAISGFRSEDEADYYCASWDYTLSGWVFGGGTKLTVLG    lower range
3. C6-9L1 (scFv) QVQLLQSGAELKKPGESLKISCKGSGYSFTSYWIAWVRQMPGKGLEYMGLIYPGDSDTKYSPSFQGQVTISVDKSVSTAYLQWSSLKPSDSAVYFCARHDVGYCSSSNCAKWPEYFQHWGQGTLVTVSSGGGGSGGGGSGGGGSQSVLTQPPSVSGAPGQWVTISCSGSSSNIGNNYVSWYQQLPGTAPKLLIYDNNKRPSGVPDRFSGSQSGTSASLAISGLRSEDEADYYCASWDYTLSGWVFGGGTKLTVLG    upper range
4. C6-B47D1 (scFv, C6MH3-B47 with the library D residues of C6MH3-D1) scFv: QVQLLQSGAELKKPGESLKISCKGSGYSFTSYWIAWVRQMPGKGLEYMGLIYPGDSDTKYSPSFQGQVTISVDKSVSTAYLQWSSLKPSDSAVYFCARHDVGYCTDRSCAKWPEWLHVWGQGTLVTVSSGGGGSGGGGSGGGGSQSVLTQPPSVSAAPGQKVTISCSGSSSNIGNNYVSWYQQLPGTAPKLLIYGHTNRPAGVPDRFSGSKSGTSASLAISGFRSEDEADYYCASWDYTLSGWVFGGGTKLTVLG    middle range
5. C6-B1D5 (scFv) QVQLLQSGAELKKPGESLKISCKGSGYSFTSYWIAWVRQMPGKGLEYMGLIYPGDSDTKYSPSFQGQVTISVDKSVSTAYLQWSSLKPSDSAVYFCARHDVGYCTDRTCAKWPEWMQMWGQGTLVTVSSGGGGSGGGGSGGGGSQSVLTQPPSVSAAPGQKVTISCSGSSSNIGNNYVSWYQQLPGTAPKLLIYGHTNRPAGVPDRFSGSKSGTSASLAISGFRSEDEADYYCASWDYTLSGWVFGGGTKLTVLG    lower range
6. C6-B1D6 (scFv, C6MH3-B1 with the library D residues of C6MH3-D6) scFv: QVQLLQSGAELKKPGESLKISCKGSGYSFTSYWIAWVRQMPGKGLEYMGLIYPGDSDTKYSPSFQGQVTISVDKSVSTAYLQWSSLKPSDSAVYFCARHDVGYCTDRTCAKWPEWMYPWGQGTLVTVSSGGGGSGGGGSGGGGSQSVLTQPPSVSAAPGQKVTISCSGSSSNIGNNYVSWYQQLPGTAPKLLIYGHTNRPAGVPDRFSGSKSGTSASLAISGFRSEDEADYYCASWDYTLSGWVFGGGTKLTVLG    middle range
7. C6-B47D3 (scFv, C6MH3-B47 with the library D residues of C6MH3-D3) scFv: QVQLLQSGAELKKPGESLKISCKGSGYSFTSYWIAWVRQMPGKGLEYMGLIYPGDSDTKYSPSFQGQVTISVDKSVSTAYLQWSSLKPSDSAVYFCARHDVGYCTDRSCAKWPEWLDNWGQGTLVTVSSGGGGSGGGGSGGGGSQSVLTQPPSVSAAPGQKVTISCSGSSSNIGNNYVSWYQQLPGTAPKLLIYGHTNRPAGVPDRFSGSKSGTSASLAISGFRSEDEADYYCASWDYTLSGWVFGGGTKLTVLG    upper range
8. C6-B47D6 (scFv, C6MH3-B47 with the library D residues of C6MH3-D6) scFv: QVQLLQSGAELKKPGESLKISCKGSGYSFTSYWIAWVRQMPGKGLEYMGLIYPGDSDTKYSPSFQGQVTISVDKSVSTAYLQWSSLKPSDSAVYFCARHDVGYCTDRSCAKWPEWMYPWGQGTLVTVSSGGGGSGGGGSGGGGSQSVLTQPPSVSAAPGQKVTISCSGSSSNIGNNYVSWYQQLPGTAPKLLIYGHTNRPAGVPDRFSGSKSGTSASLAISGFRSEDEADYYCASWDYTLSGWVFGGGTKLTVLG    upper range
9. C6-B1D2 (scFv) QVQLLQSGAELKKPGESLKISCKGSGYSFTSYWIAWVRQMPGKGLEYMGLIYPGDSDTKYSPSFQGQVTISVDKSVSTAYLQWSSLKPSDSAVYFCARHDVGYCTDRTCAKWPEWLGVWGQGTLVTVSSGGGGSGGGGSGGGGSQSVLTQPPSVSAAPGQKVTISCSGSSSNIGNNYVSWYQQLPGTAPKLLIYGHTNRPAGVPDRFSGSKSGTSASLAISGFRSEDEADYYCASWDYTLSGWVFGGGTKLTVLG    middle range
